- ASSAYED_SYSTEM: human recombinant 6His-Nterm SHP2 full-length (Thr2-Arg593) (Homo sapiens (Human))
- Sequence (Q06124 2-593): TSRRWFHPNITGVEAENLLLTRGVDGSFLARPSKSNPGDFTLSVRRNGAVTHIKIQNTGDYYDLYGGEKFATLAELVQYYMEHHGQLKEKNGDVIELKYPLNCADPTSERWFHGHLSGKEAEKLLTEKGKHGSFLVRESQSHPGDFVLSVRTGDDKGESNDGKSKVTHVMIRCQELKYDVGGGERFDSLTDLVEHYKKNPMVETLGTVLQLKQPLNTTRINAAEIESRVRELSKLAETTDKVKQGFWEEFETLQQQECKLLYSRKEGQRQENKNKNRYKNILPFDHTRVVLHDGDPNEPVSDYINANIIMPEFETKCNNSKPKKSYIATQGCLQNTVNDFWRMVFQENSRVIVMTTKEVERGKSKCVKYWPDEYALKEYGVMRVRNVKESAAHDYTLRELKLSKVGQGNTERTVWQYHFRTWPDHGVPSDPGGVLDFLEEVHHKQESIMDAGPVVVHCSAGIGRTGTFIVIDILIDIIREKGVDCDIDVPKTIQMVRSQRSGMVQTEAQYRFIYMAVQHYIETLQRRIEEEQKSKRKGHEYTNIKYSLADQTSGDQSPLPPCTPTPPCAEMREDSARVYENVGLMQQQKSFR
- TEST_PROTOCOL: SHP2 phosphatase assay (DiFMUP substrate, activating peptide)
- Format: biochemical
- RUN_PARAMETERS: full-length SHP2 0.2 nM pre-activated with bi-phosphorylated peptide 100 nM; DiFMUP 20 μM; 10-concentration dose-response
READOUT_TYPE: pIC50
Answers are plain numbers, as −log10 of the molar value.

pIC50 reported for this compound Cc1nc(N2CCC3(CC2)Cc2ccncc2[C@H]3N)c2ccnn2c1-c1cnn(C)c1C [Compound 133] : 7.68

Here's the next entry for you.
pIC50 reported for this compound COc1cc2c(cn1)CC1(CCN(c3nc(C)c(-c4cnn(C)c4C)n4nccc34)CC1)[C@@H]2N [Compound 132] : 7.47
